Numbers sourced from BigSolDB 2.1.

# EXPERIMENTAL_SETUP: in water, 318.15 K
OBSERVATION_TYPE: solubility (mole fraction)
Keep it simple and answer with nothing but the number.

Looking up C=CCC , I see its solubility (mole fraction) listed as 4.63e-05

----------
# EXPERIMENTAL_SETUP: in water, 295.15 K
OBSERVATION_TYPE: solubility (mole fraction)

Looking up C=CCC , I see its solubility (mole fraction) listed as 8.78e-05

----------
# EXPERIMENTAL_SETUP: in water, 293.15 K
OBSERVATION_TYPE: solubility (mole fraction)
Keep it simple and answer with nothing but the number.

Looking up C=CCC , I see its solubility (mole fraction) listed as 9.53e-05
